Every entry's value here was drawn from patent US20190248900A1.

- ASSAY_TARGET: T1, M13
- T1 construct: also called PD1 mutant M13
- TEST_SUMMARY: ELISA, 1 ug/ml
Record form. Attribute: OD490. Fill in for each entry.
One number for each entry.

1. PD1-49A2 (antibody, V domains shown, scFv-phage in the screening ELISA; whole IgG in the other assays; also called Parent 49A2) VH: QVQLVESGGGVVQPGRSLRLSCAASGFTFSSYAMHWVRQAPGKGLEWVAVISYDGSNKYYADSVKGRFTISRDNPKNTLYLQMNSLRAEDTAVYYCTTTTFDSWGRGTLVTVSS VL: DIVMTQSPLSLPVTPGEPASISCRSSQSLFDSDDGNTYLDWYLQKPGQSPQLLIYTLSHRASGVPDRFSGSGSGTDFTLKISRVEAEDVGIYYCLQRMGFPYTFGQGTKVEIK :: 3.9
2. PD1-45D6 (antibody, V domains shown, scFv-phage in the screening ELISA; whole IgG in the other assays) VH: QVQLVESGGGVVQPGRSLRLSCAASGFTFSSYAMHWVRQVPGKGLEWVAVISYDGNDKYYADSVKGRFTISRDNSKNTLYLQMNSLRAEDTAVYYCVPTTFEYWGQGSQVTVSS VL: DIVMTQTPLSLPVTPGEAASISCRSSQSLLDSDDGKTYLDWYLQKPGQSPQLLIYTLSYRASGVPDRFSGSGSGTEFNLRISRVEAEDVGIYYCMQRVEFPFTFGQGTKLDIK :: 4
3. PD1-52E8 (antibody, V domains shown, scFv-phage in the screening ELISA; whole IgG in the other assays) VH: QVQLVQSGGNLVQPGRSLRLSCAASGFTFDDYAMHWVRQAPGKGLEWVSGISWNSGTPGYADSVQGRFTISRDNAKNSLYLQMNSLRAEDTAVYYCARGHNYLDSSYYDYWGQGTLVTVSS VL: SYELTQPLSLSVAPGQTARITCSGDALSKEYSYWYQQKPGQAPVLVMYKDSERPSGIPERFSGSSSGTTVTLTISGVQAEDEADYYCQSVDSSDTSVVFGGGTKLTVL :: 3.9

[ask] Which OD490 value is on record for PD1-41C9 (antibody, V domains shown, scFv-phage in the screening ELISA; whole IgG in the other assays) VH: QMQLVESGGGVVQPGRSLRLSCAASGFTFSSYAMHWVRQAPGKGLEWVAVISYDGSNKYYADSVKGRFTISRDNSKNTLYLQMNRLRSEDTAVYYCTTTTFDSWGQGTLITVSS VL: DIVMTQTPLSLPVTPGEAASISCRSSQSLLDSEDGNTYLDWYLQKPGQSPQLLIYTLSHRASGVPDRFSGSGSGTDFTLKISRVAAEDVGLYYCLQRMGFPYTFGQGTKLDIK ?
[reply] 3.6
